assay: probe aEGFR binding to arrayed compounds – biochemical, biotinylated probe, 635/667 nm fluorescence, primary screen (AID 1097); conditions: small-molecule microarray, higher = more signal;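 note: probe is a biotinylated anti-EGFR antibody binding compounds printed on slides; score combines fluorescence near 667 nm and signal to noise of each spot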
measurement.name: composite z-score

chemical_structure=CCCNC(=O)[C@@]1(c2ccc([N+](=O)[O-])cc2)CC(=O)N(C(C)C)[C@@H]1c1ccc(CO)cc1 measurement_name="composite z-score" endpoint_result=-0.278
chemical_structure=COCCOC(=O)N1C(=O)[C@@]2(c3cc(C#Cc4ccc(OC)cc4)ccc31)[C@H](c1ccc(OCCO)cc1)N1[C@H](c3ccccc3)[C@H](c3ccccc3)OC(=O)[C@H]1[C@@H]2C(=O)NC[C@H](O)c1ccccc1 measurement_name="composite z-score" endpoint_result=0.259
chemical_structure=Cc1ccc(S[C@]2(C(=O)NCC(F)(F)F)CC(=O)N(Cc3ccccc3C(F)(F)F)[C@@H]2c2ccc(CO)cc2)cc1 measurement_name="composite z-score" endpoint_result=-0.0416

* * *

test system: Human papillomavirus type 1a E7 protein (residues 1-88); assay: HPV1a E7 small-molecule binders, primary screen, biochemical, small-molecule microarray, residues 1-88, 635 nm (AID 1129); conditions: small-molecule microarray binding, fluorescence 635 nm; higher = more signal
measurement.name: composite z-score

chemical_structure=COCCCNC(=O)[C@@]1(Sc2ccc(C)cc2)CC(=O)N(Cc2ccccc2C(F)(F)F)[C@@H]1c1ccc(CO)cc1I system_name="Human papillomavirus type 1a E7 protein (residues 1-88)" endpoint_result=-2.04
chemical_structure=COc1ccccc1CN1C(=O)c2ccccc2[C@](Cc2ccccc2I)(C(=O)NCC(C)C)[C@@H]1c1ccc(CO)cc1 system_name="Human papillomavirus type 1a E7 protein (residues 1-88)" endpoint_result=0.654
chemical_structure=COc1ccc([Si](C)(C)[C@H]2[C@H](CCO)O[C@@]3(C(=O)N(Cc4cccc(N5C(=O)c6ccccc6Oc6ccccc65)c4)c4ccccc43)[C@@H]2C)cc1 system_name="Human papillomavirus type 1a E7 protein (residues 1-88)" endpoint_result=0.838
chemical_structure=CCOC(=O)C[C@H]1[C@H](OC(=O)c2ccccc2-c2ccccc2)[C@@H](NC(=O)C2CCCCC2)c2cc(OCCCO)ccc2N1C(=O)c1ccc2ccccc2n1 system_name="Human papillomavirus type 1a E7 protein (residues 1-88)" endpoint_result=0.667
chemical_structure=COCCOC(=O)N1C(=O)[C@@]2(c3ccccc31)[C@H](c1ccc(O)cc1)N1[C@H](c3ccccc3)[C@H](c3ccccc3)OC(=O)[C@H]1[C@@H]2C(=O)N1CCCCCCC1 system_name="Human papillomavirus type 1a E7 protein (residues 1-88)" endpoint_result=1.21
chemical_structure=COc1ccc(C#Cc2ccc3c(c2)[C@]2(C(=O)N3)[C@H](C(=O)O)[C@H]3C(=O)O[C@H](c4ccccc4)[C@H](c4ccccc4)N3[C@@H]2c2ccccc2OCCO)cc1 system_name="Human papillomavirus type 1a E7 protein (residues 1-88)" endpoint_result=1.17

* * *

assay: small molecules captured by biotinylated probe aFGF2 – biochemical, small-molecule microarray, fluorescence 635/667, stem cell growth factor project, primary screen (AID 1067); conditions: higher = more signal;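 note: measures binding of biotinylated aFGF2 protein to printed compounds on slides; z-score merges feature fluorescence and signal-to-noise across triplicate slides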
Measured composite z-score accompanies every entry in the list below.
measurement.name: composite z-score

compound=O=C1C[C@]2(c3ccc([N+](=O)[O-])cc3)C(=O)N(C3CC3)c3cc(CO)ccc3[C@H]2N1C1CCCCC1 endpoint_result=-0.164
compound="COC(=O)C1=CC(CCCO)=CC(c2cccs2)N(Cc2cc3c(cc2Br)OCO3)C=C1C(=O)OC (stereo not given)" endpoint_result=0.0931
compound="C=CCC(OC(C)=O)[C@@H]1[C@@H](N(Cc2cc3ccccc3o2)C(=O)c2cccc3ccccc23)c2cc(OCCCO)ccc2N1C(=O)c1ccc2ccccc2n1 (stereo not given in full)" endpoint_result=-0.116
compound=COc1ccc([Si](C)(C)[C@@H]2[C@@H](CC(=O)N3CCC[C@H]3CO)O[C@]3(C(=O)N(Cc4ccc(N5CCOC5=O)cc4)c4ccccc43)[C@H]2C)cc1 endpoint_result=-0.155
compound=COc1ccc(C(=O)Nc2cccc(CN3C(=O)[C@]4(O[C@H](CC(=O)N5Cc6ccccc6C[C@H]5CO)[C@@H]([Si](C)(C)c5ccc(OC)cc5)[C@@H]4C)c4ccccc43)c2)cc1 endpoint_result=-0.159
compound="CCCCC(O)C1C=CC2C(=O)N(c3ccccc3)C(=O)C2N1Nc1ccc(C#N)cc1 (stereo not given)" endpoint_result=-0.074
compound="CCCCN1CC=CC23O[C@@H]4/C=C\\CCCOC(=O)C4[C@H]2C(=O)N(C(CO)C(C)C)[C@@H]3C1=O (stereo not given in full)" endpoint_result=-0.101
compound=Cc1ccc(S[C@]2(C(=O)NCCCN(C)C)CC(=O)N(Cc3ccccc3C(F)(F)F)[C@@H]2c2ccc(CO)cc2I)cc1 endpoint_result=-0.21
compound=NCCCCCCNC(=O)[C@@H]1C[C@@H]2C(=O)N3CCC[C@H]3C(=O)N2[C@@H]1c1cccc(OCCO)c1 endpoint_result=-0.0347
compound=C=C(CCCC)/C(=C/C[C@H](OC(=O)c1ccncc1)c1ccccc1OCCO)c1cc(C(=O)OC)ccc1OC endpoint_result=-0.0591
compound=C=C(CCCC)/C(=C/C[C@H](OC(=O)c1ccncc1)c1cccc(OCCO)c1)c1cnc2ccccc2c1 endpoint_result=0.0437
compound=COc1ccc(C(=O)Nc2ccc3c(c2)[C@@]2(O[C@H](CCO)[C@@H]([Si](C)(C)c4ccc(OC)cc4)[C@@H]2C)C(=O)N3Cc2ccccc2)cc1 endpoint_result=-0.0333
compound=CN1C(=O)[C@@H]2[C@@H](CC(COc3ccccc3)=C3[C@@H](CCc4ccccc4)OB(O)C[C@@H]32)C1=O endpoint_result=-0.0415
compound=CN(C)CCCC[C@@H]1NC(=O)[C@@H]2C[C@H](C(=O)NCCCCCN)[C@H](c3cccc(OCCO)c3)N2C1=O endpoint_result=-0.121
compound="C=CC[C@]1(C(=O)NCC(O)CO)COC(c2ccc(OCCCO)cc2)=N1 (stereo not given in full)" endpoint_result=0.0163
